Tested on: DIV17
method: qHTS profiling for inhibitors of Plasmodium falciparum proliferation (AID 504749); further: nearly all actives have a fitted effect of over 60% in size
test.parameters: P. falciparum in erythrocytes, SYBR Green DNA, 72 h; series mostly up to 28.7 µM
Results filed as inconclusive are left out. Activity calls are given as the source filed them. The call rests on the fitted dose curve; in most records, active means well fitted inhibition curve with a large enough effect; inconclusive means small, poorly fitted or top-dose-only effect; inactive means flat fitted curve, though single readings scatter.
Classes to choose from: TRUE = active, FALSE = inactive

compound: C#CCOc1ccc2c(C)cc(=O)oc2c1
classification: FALSE

compound: CCCCCCCC/C=C\CCCCCCCC(=O)O
classification: FALSE

compound: CCCCCCCCCCCC[n+]1ccc2ccccc2c1
classification: TRUE

INPUT: For Clc1cc(Cl)c(OCC#CI)cc1Cl , what call appears in the results of this test?
OUTPUT: TRUE

INPUT: Also check COC(C(=O)C(O)C(C)O)C1Cc2cc3cc(OC4CC(OC5CC(O)C(O)C(C)O5)C(O)C(C)O4)c(C)c(O)c3c(O)c2C(=O)C1OC1CC(OC2CC(OC3CC(C)(O)C(O)C(C)O3)C(O)C(C)O2)C(O)C(C)O1 (stereo not given)
OUTPUT: TRUE

###

Test system: SKOV3
method: Primary qHTS to identify gynecologic anti-cancer compounds using libraries of approved drugs and bioactive compounds (AID 1345084); further: nearly all actives have a fitted effect of over 55% in size
test.parameters: Gynecologic cancer cell panel viability, ATPlite luminescence, 48 h; series mostly up to 57.5 µM
Records with an inconclusive call do not appear. Active and inactive are the calls of the source. Calls come from the whole dose curve; as a rule, active = well fitted cell-killing curve with a large enough effect; inconclusive = small, poorly fitted or top-dose-only effect, or effect the other way; inactive = flat fitted curve, though single readings scatter.
value.kind: activity change, negative = cytotoxicity

compound: O=c1ccn([C@@H]2O[C@H](CO)[C@@H](O)[C@H]2O)c(=O)[nH]1
assayed.system: SKOV3
value.kind: activity change, negative = cytotoxicity
recorded.measurement: inactive
--
compound: CC(C#N)C(C)O[C@@H]1O[C@H](CO)[C@@H](O)[C@H](O)[C@H]1O (stereo not given in full)
assayed.system: SKOV3
value.kind: activity change, negative = cytotoxicity
recorded.measurement: inactive
--
compound: CC1CC(=O)C2=C(O1)OC1(C)CCC3C(C)(C)C=CC(=O)C3(C)C1C2 (stereo not given)
assayed.system: SKOV3
value.kind: activity change, negative = cytotoxicity
recorded.measurement: inactive
--
compound: O=C(NN1CCCCC1)c1nn(-c2ccc(Cl)cc2Cl)c(-c2ccc(C#Cc3ccc(C(F)(F)F)cc3)s2)c1CNS(=O)(=O)N1CCCC1
assayed.system: SKOV3
value.kind: activity change, negative = cytotoxicity
recorded.measurement: inactive
--
compound: C=C1C[C@]23C[C@H]1CC[C@H]2[C@@]12C=C[C@H](O)[C@@](C)(C(=O)O1)[C@H]2[C@@H]3C(=O)O
assayed.system: SKOV3
value.kind: activity change, negative = cytotoxicity
recorded.measurement: inactive
--
compound: N#Cc1ccnc(N2C(=O)CC[C@H]2C(=O)N(c2cncc(F)c2)[C@H](C(=O)NC2CC(F)(F)C2)c2ccccc2Cl)c1
assayed.system: SKOV3
value.kind: activity change, negative = cytotoxicity
recorded.measurement: inactive
--
compound: C/C=C1/[C@H](O[C@@H]2O[C@H](CO)[C@@H](O)[C@H](O)[C@H]2O)OC=C(C(=O)OC)[C@H]1CC(=O)O[C@@H]1O[C@H](CO)[C@@H](O)[C@H](O)[C@H]1O
assayed.system: SKOV3
value.kind: activity change, negative = cytotoxicity
recorded.measurement: inactive
--
compound: CC1(C)O[C@]23C[C@H]1C[C@H](OC(=O)c1ccoc1)[C@]2(C)[C@@H](OC(=O)c1ccoc1)CCC3(C)O (stereo not given in full)
assayed.system: SKOV3
value.kind: activity change, negative = cytotoxicity
recorded.measurement: inactive
--
compound: COC(=O)C[C@@H]1C(C(=O)O)=CO[C@@H](O[C@@H]2O[C@H](CO)[C@@H](O)[C@H](O)[C@H]2O)/C1=C\COC(=O)/C=C\c1ccccc1
assayed.system: SKOV3
value.kind: activity change, negative = cytotoxicity
recorded.measurement: inactive
--
compound: COc1c(C(CC(C)C)OC(C)=O)ccc(Oc2c(O)cc(C)cc2/C=C/C(C)=O)c1C(=O)O (stereo not given)
assayed.system: SKOV3
value.kind: activity change, negative = cytotoxicity
recorded.measurement: inactive

Quick batch: activity change, negative = cytotoxicity for everything below.
1. CCNC(=O)[C@H]1O[C@H](n2cnc3c(NCC(c4ccccc4)c4ccccc4)nc(C(=O)NCCNC(=O)NC4CCN(c5ccccn5)CC4)nc32)[C@H](O)[C@@H]1O
2. CC(=O)OCCC(C)CCC1C(C)(O)CCC2C(C)(C)CCCC21C (stereo not given)
3. CC(=O)O[C@@H]1[C@H]2[C@@H](OC(=O)c3ccccc3)[C@@H](C)C[C@]2(O)[C@H](OC(C)=O)[C@@]2(C)[C@@H]3CC(C)(C)C(=O)[C@]3(OC(C)=O)C[C@@]12C
4. CC1[C@@H](O)[C@@H](O)C2[C@]3(C)C(C[C@H]4OC(=O)[C@H](O)[C@]1(O)[C@@]24C)C(C)(O)C[C@H](O)[C@H]3O (stereo not given in full)
5. C/C=C/C=C/C(CC(=O)O)Nc1ccc(C=O)cc1 (stereo not given)

OUTPUT:
1. inactive
2. inactive
3. inactive
4. inactive
5. inactive

Cited source for all entries: PubChem BioAssay (NCATS)
